- MEASURED ON: KRAS G12V (Homo sapiens, UniProt P01116+P62937, G12V)
- Sequence (P01116 1-169 isoform P01116-2 G12V limits assumed): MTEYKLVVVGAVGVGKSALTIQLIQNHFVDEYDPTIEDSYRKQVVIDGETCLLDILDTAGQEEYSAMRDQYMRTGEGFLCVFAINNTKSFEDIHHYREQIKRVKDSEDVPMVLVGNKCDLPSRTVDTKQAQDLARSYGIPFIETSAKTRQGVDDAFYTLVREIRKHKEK
- Sequence (P62937 whole entry): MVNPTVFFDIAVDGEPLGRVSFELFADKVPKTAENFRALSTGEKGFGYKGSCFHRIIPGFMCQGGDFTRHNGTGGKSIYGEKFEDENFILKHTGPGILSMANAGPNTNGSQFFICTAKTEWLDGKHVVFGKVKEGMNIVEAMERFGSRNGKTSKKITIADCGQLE
- PROCEDURE TEXT: Ras-Raf disruption/FRET/MOA assay, KRAS G12V
- Type: biochemical
- APPLIED CONDITIONS: disruption of BRAF RBD binding, with Cyclophilin A; read-out: KRAS G12V FRET IC50
pIC50: −log10 of the molar value.
MEASURE NAME: pIC50

CCn1c(-c2cnccc2COC)c2c3cc(ccc31)-c1cc(O)cc(c1)C[C@H](NC(=O)[C@@H](CNC1=NCCO1)C(C)C)C(=O)N1CCC[C@H](N1)C(=O)OCC(C)(C)C2: 5.00 to 6.00
CCn1c(-c2cccnc2[C@H](C)OC)c2c3cc(ccc31)-c1cc(O)cc(c1)C[C@H](NC(=O)[C@H](C1CCCC1)N(C)C(=O)[C@H]1CCN(C(=O)[C@H]3CN3)C1)C(=O)N1CCC[C@H](N1)C(=O)OCC(C)(C)C2: 7.00 to 8.00
CCn1c(-c2cccnc2[C@H](C)OC)c2c3cc(ccc31)-c1cc(O)cc(c1)C[C@H](NC(=O)[C@H](C(C)C)N1CCCC3(CN(C(=O)[C@@H]4CN4)C3)C1=O)C(=O)N1CCC[C@H](N1)C(=O)OCC(C)(C)C2: 7.00 to 8.00
CCn1c(-c2cccnc2[C@H](C)OC)c2c3cc(ccc31)-c1cc(O)cc(c1)C[C@H](NC(=O)[C@H](C(C)C)N(C)C(=O)[C@@H]1CN(C(=O)[C@H]3CN3)C[C@@H]1C)C(=O)N1CCC[C@H](N1)C(=O)OCC(C)(C)C2: 7.00 to 8.00
CCn1c(-c2cccnc2[C@H](C)OC)c2c3cc(ccc31)-c1csc(n1)C[C@H](NC(=O)[C@H](C(C)C)N(C)C(=O)N1CCC[C@@H](N(C)C(=O)[C@@H]3CN3)C1)C(=O)N1CCC[C@H](N1)C(=O)OCC(C)(C)C2 (atropisomer, axis not shown): 6.00 to 7.00
CCn1c(-c2cnccc2COC)c2c3cc(ccc31)-c1cc(O)cc(c1)C[C@H](NC(=O)[C@H](C(C)C)N(C)C(=O)CN(C)C(=O)[C@@H]1CN1S(C)(=O)=O)C(=O)N1CCC[C@H](N1)C(=O)OCC(C)(C)C2 (stereo partly shown): 6.00 to 7.00
CCn1c(-c2cnccc2COC)c2c3cc(ccc31)-c1cccc(c1)C[C@H](NC(=O)[C@H](C(C)C)N1CC[C@H](CN=C=Nc3ccc(OC)cc3)C1)C(=O)N1CCC[C@H](N1)C(=O)OCC(C)(C)C2: < 5.00
CCn1c(-c2cccnc2COC)c2c3cc(ccc31)-c1cc(O)cc(c1)C[C@H](NC(=O)[C@H](C(C)C)N(C)C(=O)CNC1=NCCO1)C(=O)N1CCC[C@H](N1)C(=O)OCC(C)(C)C2: < 5.00
CCn1c(-c2cnccc2COC)c2c3cc(ccc31)-c1cc(O)cc(c1)C[C@H](NC(=O)[C@H](C(C)C)N(C)C(=O)CN1C(=O)[C@@H]3[C@H](C1=O)N3Cc1ccccc1)C(=O)N1CCC[C@H](N1)C(=O)OCC(C)(C)C2 (stereo partly shown): 6.00 to 7.00
CCn1c(-c2cnccc2COC)c2c3cc(ccc31)-c1cc(O)cc(c1)C[C@H](NC(=O)[C@H](C(C)C)N(C)C(=O)CN(C)C(=O)[C@H]1[C@@H](C3CC3)N1[S@+]([O-])C(C)(C)C)C(=O)N1CCC[C@H](N1)C(=O)OCC(C)(C)C2 (stereo partly shown): 6.00 to 7.00
CCn1c(-c2cccnc2[C@H](C)OC)c2c3cc(ccc31)-c1cc(O)cc(c1)C[C@H](NC(=O)[C@H](C(C)C)N1CCCC3(CN(C(=O)[C@H]4CN4)C3)C1=O)C(=O)N1CCC[C@H](N1)C(=O)OCC(C)(C)C2: 7.00 to 8.00
CCn1c(-c2cnccc2COC)c2c3cc(ccc31)-c1cc(O)cc(c1)C[C@H](NC(=O)[C@H](C(C)C)N(C)C(=O)CN(C)C(=O)[C@@H]1[C@H](C)N1[S@@+]([O-])C(C)(C)C)C(=O)N1CCC[C@H](N1)C(=O)OCC(C)(C)C2 (stereo partly shown): 6.00 to 7.00
CCn1c(-c2cccnc2[C@H](C)OC)c2c3cc(ccc31)-c1cc(O)cc(c1)C[C@H](NC(=O)[C@H](C(C)C)N1CO[C@@]3(CCN(C(=O)[C@H]4CN4)C3)C1=O)C(=O)N1CCC[C@H](N1)C(=O)OCC(C)(C)C2: 6.00 to 7.00
CCn1c(-c2cccnc2[C@H](C)OC)c2c3cc(ccc31)-c1cc(O)cc(c1)C[C@H](NC(=O)[C@H](C(C)C)N1CCC3(CCN(C(=O)[C@@H]4CN4)CC3)C1=O)C(=O)N1CCC[C@H](N1)C(=O)OCC(C)(C)C2: 6.00 to 7.00
CCn1c(-c2cccnc2[C@H](C)OC)c2c3cc(ccc31)-c1csc(n1)C[C@H](NC(=O)[C@H](C1CCCC1)N1CC[C@]3(CCN(C(=O)[C@H]4CN4)C3)C1=O)C(=O)N1CCC[C@H](N1)C(=O)OCC(C)(C)C2: 5.00 to 6.00
CCn1c(-c2cnccc2COC)c2c3cc(ccc31)-c1cc(O)cc(c1)C[C@H](NC(=O)[C@H](C(C)C)N(C)C(=O)CN(C)C(=O)[C@H]1[C@@H](C)N1[S@+]([O-])C(C)(C)C)C(=O)N1CCC[C@H](N1)C(=O)OCC(C)(C)C2 (stereo partly shown): 6.00 to 7.00

Sourced from patent US11739074B2
